Cited source: paper PMC12040169

Items are presented alongside their recorded viability at 28.5 h, 10 µM.
EXPERIMENTAL_DETAILS: in vitro
CONDITION_INFO: human, hela cells, % viability
Report only the number, with the unit % understood.

> print(dat)
                                   compound  result.units  reported
1  CCn1cc(S(=O)(=O)NC2CCc3[nH]c4ccc(C)cc4c3C2)cn1 (stereo not drawn)             %      99.7
2  O=C(c1cn2ccccc2n1)N1CCC(c2ccccc2)C1 (stereo not drawn)             %       104
3  COc1cc(C(c2nnnn2C2CCCCC2)N2CCN(C)CC2)cc(OC)c1OC (stereo not drawn) [CBK142338C]             %      98.3
4  CCN(C(=O)CC1SC(NCC2CCCCC2)=NC1=O)c1ccccc1 (stereo not drawn)             %      89.3
5  Cc1ccc(S(=O)(=O)Nc2ccc(C3(c4ccc(NS(=O)(=O)c5ccc(C)cc5)cc4)c4ccccc4-c4ccccc43)cc2)cc1             %       102

Value lookup for viability at 28.5 h, 10 µM; key = `Cc1ccc(C(=O)N2CCC(c3n[nH]c4ncccc34)CC2)s1`
90.8

And CC(Oc1ccc(S(=O)(=O)N2CCN(C)CC2)cc1)C(=O)NC1CCCCC1 (stereo not drawn) ?
97.9

Query `COc1ccc2[nH]cc(CCNC(=O)COc3ccc(O)cc3)c2c1` next
82

One more compound: `O=C1CN(C(=O)NCc2cccc3ccccc23)CCN1`
102
